Reported endpoint: IC50 (nM)
Write down the numeric answer in nM and omit the unit.

Field IC50 (system: purified ClbP (Escherichia coli)) for entry CC1(C)OB([C@@H](CC(N)=O)NC(=O)c2ccc3ccccc3c2)OC1(C)C [Compound 2] = 34

Field IC50 (system: purified ClbP (Escherichia coli)) for entry CCCCCC(=O)N[C@H](CC(N)=O)B1OC(C)(C)C(C)(C)O1 [Compound 1] = 40

Field IC50 (system: purified ClbP (Escherichia coli)) for entry CC1(C)OB([C@@H](CC(N)=O)NC(=O)c2ccccc2)OC1(C)C [Compound 4] = 69

Field IC50 (system: purified ClbP (Escherichia coli)) for entry CC1(C)OB([C@@H](CC(N)=O)NC(=O)CCCc2ccccc2)OC1(C)C [Compound 3] = 28

###

# Measurement target: E. coli BL21 overexpressing ClbP (Escherichia coli)
# Test: ClbP fluorescence activity assay (live cells)
Reported endpoint: IC50 (nM)
Write down the numeric answer in nM and omit the unit.

Field IC50 (system: E. coli BL21 overexpressing ClbP (Escherichia coli)) for entry CCCCCC(=O)N[C@H](CC(N)=O)B1OC(C)(C)C(C)(C)O1 = 5.6

Field IC50 (system: E. coli BL21 overexpressing ClbP (Escherichia coli)) for entry CC1(C)OB([C@@H](CC(N)=O)NC(=O)c2ccc3ccccc3c2)OC1(C)C = 7.2

Field IC50 (system: E. coli BL21 overexpressing ClbP (Escherichia coli)) for entry CC1(C)OB([C@@H](CC(N)=O)NC(=O)c2ccccc2)OC1(C)C = 27

Field IC50 (system: E. coli BL21 overexpressing ClbP (Escherichia coli)) for entry CC1(C)OB([C@@H](CC(N)=O)NC(=O)CCCc2ccccc2)OC1(C)C = 18.3

// provenance: patent US12115176B2
